# System: Escherichia coli TOP10
# MEASUREMENT DESCRIPTION: shrunken log2 fold change of peptide-encoding DNA abundance (4.5 h post-induction vs induction); higher = less antimicrobial activity (less host growth inhibition)
# EXPERIMENTAL PARAMETERS: time post-induction: 4.5 h; library: site-saturation at positions 5, 18, 19, 20
VALUE KIND: shrunken log2 fold change

> print(dat)
         construct.sequence  observed.measurement
 1  RRIRLRPPRLPRPRPRPPNDPRP                0.0552
 2  RRIRIRPPRLPRPRPRPLYCPRP                -0.744
 3  RRIRPRPPRLPRPRPRPLYMPRP                -0.673
 4  RRIRFRPPRLPRPRPRPQQYPRP                -0.552
 5  RRIRSRPPRLPRPRPRPLIGPRP                -0.118
 6  RRIRKRPPRLPRPRPRPECNPRP                0.0503
 7  RRIRTRPPRLPRPRPRPWKDPRP                0.0143
 8  RRIRWRPPRLPRPRPRPYKAPRP                0.0233
 9  RRIRNRPPRLPRPRPRPDCSPRP                -0.224
10  RRIRSRPPRLPRPRPRPTRFPRP                   0.2
11  RRIRCRPPRLPRPRPRPRVNPRP                0.0551
12  RRIRERPPRLPRPRPRPAIIPRP                -0.259
13  RRIRDRPPRLPRPRPRPFAKPRP               -0.0729
14  RRIRDRPPRLPRPRPRPLCQPRP                0.0964
15  RRIRSRPPRLPRPRPRPRGQPRP                 0.197
16  RRIRERPPRLPRPRPRPFVYPRP                -0.123
17  RRIRGRPPRLPRPRPRPEDLPRP                 0.582
18  RRIRERPPRLPRPRPRPFPGPRP               -0.0108
19  RRIRGRPPRLPRPRPRPSKHPRP               -0.0347
20  RRIRRRPPRLPRPRPRPEHQPRP                  0.25
21  RRIRRRPPRLPRPRPRPREFPRP                 0.419

----------
# Tested on: Escherichia coli TOP10
# MEASUREMENT DESCRIPTION: shrunken log2 fold change of peptide-encoding DNA abundance (4.5 h post-induction vs induction); higher = less antimicrobial activity (less host growth inhibition)
# EXPERIMENTAL PARAMETERS: time post-induction: 4.5 h; library: site-saturation at positions 5, 18, 19, 20
List of shrunken log2 fold change values.
VALUE KIND: shrunken log2 fold change

> print(dat)
         construct.sequence             system.name  observed.measurement
 1  RRIRIRPPRLPRPRPRPTFAPRP  Escherichia coli TOP10                -0.176
 2  RRIRHRPPRLPRPRPRPWCLPRP  Escherichia coli TOP10                 -1.67
 3  RRIRLRPPRLPRPRPRPSLRPRP  Escherichia coli TOP10               0.00716
 4  RRIRPRPPRLPRPRPRPGMGPRP  Escherichia coli TOP10                 0.149
 5  RRIRPRPPRLPRPRPRPKRTPRP  Escherichia coli TOP10                0.0584
 6  RRIRDRPPRLPRPRPRPNSVPRP  Escherichia coli TOP10               -0.0426
 7  RRIRDRPPRLPRPRPRPCNPPRP  Escherichia coli TOP10                 -0.13
 8  RRIRRRPPRLPRPRPRPFWMPRP  Escherichia coli TOP10                0.0323
 9  RRIRKRPPRLPRPRPRPFRHPRP  Escherichia coli TOP10               -0.0849
10  RRIRYRPPRLPRPRPRPFRIPRP  Escherichia coli TOP10                -0.535
11  RRIRFRPPRLPRPRPRPYTDPRP  Escherichia coli TOP10                -0.233
12  RRIRCRPPRLPRPRPRPPGGPRP  Escherichia coli TOP10                 0.539
13  RRIRDRPPRLPRPRPRPAEEPRP  Escherichia coli TOP10                 0.168
14  RRIRRRPPRLPRPRPRPSIHPRP  Escherichia coli TOP10                -0.337
15  RRIRIRPPRLPRPRPRPFHTPRP  Escherichia coli TOP10                -0.235

----------
This listing pairs sequences with measured shrunken log2 fold change.
# Test system: Escherichia coli TOP10;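 also: peptides expressed intracellularly from a pBAD plasmid library in pooled LB shake-flask culture, induced with 0.3% L-arabinose, DNA abundance read by NGS, three biological replicates, DESeq2 with apeglm shrinkage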
# MEASUREMENT DESCRIPTION: shrunken log2 fold change of peptide-encoding DNA abundance (4.5 h post-induction vs induction); higher = less antimicrobial activity (less host growth inhibition)
# EXPERIMENTAL PARAMETERS: time post-induction: 4.5 h; library: site-saturation at positions 5, 18, 19, 20
VALUE KIND: shrunken log2 fold change

> print(dat)
         construct.sequence  observed.measurement
 1  RRIRVRPPRLPRPRPRPFYVPRP                  1.07
 2  RRIRSRPPRLPRPRPRPQDDPRP                -0.351
 3  RRIRMRPPRLPRPRPRPQHPPRP               -0.0395
 4  RRIRNRPPRLPRPRPRPQHEPRP               -0.0581
 5  RRIRPRPPRLPRPRPRPDCNPRP                -0.319
 6  RRIRRRPPRLPRPRPRPEYSPRP                -0.265
 7  RRIRCRPPRLPRPRPRPPKIPRP                 0.277
 8  RRIRRRPPRLPRPRPRPSNLPRP                 0.112
 9  RRIRKRPPRLPRPRPRPGVMPRP                 0.895
10  RRIRFRPPRLPRPRPRPWLFPRP               -0.0194
11  RRIRDRPPRLPRPRPRPKCQPRP              -0.00187
12  RRIRYRPPRLPRPRPRPVVYPRP                0.0874
13  RRIRFRPPRLPRPRPRPMSHPRP               0.00661
14  RRIRRRPPRLPRPRPRPDHEPRP                 0.152
15  RRIRCRPPRLPRPRPRPGHQPRP                 0.242
16  RRIRQRPPRLPRPRPRPRNHPRP                -0.137
17  RRIRNRPPRLPRPRPRPKAFPRP               -0.0608
18  RRIRTRPPRLPRPRPRPKPYPRP                -0.607
19  RRIRSRPPRLPRPRPRPHKAPRP                  -0.1
20  RRIRCRPPRLPRPRPRPYRPPRP                -0.352
21  RRIRDRPPRLPRPRPRPRRRPRP                 0.736
22  RRIRNRPPRLPRPRPRPEREPRP                 0.256
23  RRIRQRPPRLPRPRPRPPYCPRP                0.0161
24  RRIRKRPPRLPRPRPRPYKKPRP                -0.201
25  RRIRERPPRLPRPRPRPAPWPRP                 0.203
26  RRIRCRPPRLPRPRPRPDFQPRP                -0.294
27  RRIRLRPPRLPRPRPRPKNWPRP               -0.0113
28  RRIRKRPPRLPRPRPRPKAFPRP                0.0156
29  RRIRIRPPRLPRPRPRPMGYPRP                -0.148
30  RRIRCRPPRLPRPRPRPYCSPRP                -0.502
31  RRIRVRPPRLPRPRPRPHQSPRP                 -0.23
32  RRIRPRPPRLPRPRPRPMLAPRP                 0.281
33  RRIRTRPPRLPRPRPRPWSAPRP                -0.152
34  RRIRSRPPRLPRPRPRPYKCPRP                -0.137
35  RRIRHRPPRLPRPRPRPLHGPRP               0.00793
36  RRIRVRPPRLPRPRPRPNHCPRP                -0.181
37  RRIRERPPRLPRPRPRPQAPPRP               -0.0683
38  RRIRWRPPRLPRPRPRPVCSPRP                0.0102
39  RRIRLRPPRLPRPRPRPSFSPRP                -0.365
40  RRIRMRPPRLPRPRPRPFHMPRP                 0.105
41  RRIRQRPPRLPRPRPRPDMVPRP               -0.0075
42  RRIRNRPPRLPRPRPRPTVMPRP                 0.178
